- Test system: CAKI-1
- ASSAY_PROTOCOL: NCI tumour cell line growth inhibition, 48 h
Calls of active or inactive are those of the source. Rule as the data show it: active = GI50 up to about 1.1 µM and inactive = higher.
PROPERTY: GI50

Look up GI50 for this molecule: CCC1=C(C=O)c2cc3[nH]c(cc4nc(c5c6[nH]c(cc1n2)c(C)c6C(=O)C5C(=O)OC)C(CCC(=O)OC)C4C)c(C)c3CC (stereo not drawn)
> 100 µM (inactive)

Look up GI50 for this molecule: O=C1N/C(=N/N=C\c2ccccc2)N/C1=C/c1ccccc1
27.8 µM (inactive)

Look up GI50 for this molecule: NC1=NC(=O)C2(NN1)c1ccccc1-c1ccccc12
> 10 µM (inactive)

Look up GI50 for this molecule: O=C(NC1=C(Cl)C(=O)c2ccccc2C1=O)C(=O)C(C(=O)c1ccc2ccccc2c1)C1OC(=O)c2ccccc21 (stereo not drawn)
6.34 µM (inactive)

Look up GI50 for this molecule: COCN1C(=O)[C@@H]2C[C@@H](O)CN2C(=O)c2ccccc21
> 100 µM (inactive)

Look up GI50 for this molecule: Cc1cc(N(CCOS(C)(=O)=O)CCOS(C)(=O)=O)ccc1/C=N/c1ccc(-c2nc(Cc3ccccc3)sc2C)cc1
1.23 µM (inactive)

Look up GI50 for this molecule: COc1ccc(C(OCC2OC(n3cc(C)c(=O)[nH]c3=O)CC2n2cc(Cn3cc(Cl)c(=O)[nH]c3=O)nn2)(c2ccccc2)c2ccccc2)cc1 (stereo not drawn)
> 100 µM (inactive)

Look up GI50 for this molecule: CCCCCCN1C(=O)CC(=O)N(CCCCCC)S1(=O)=O
22 µM (inactive)

Look up GI50 for this molecule: O=C1/C(=C/c2ccc(O)c([N+](=O)[O-])c2)CCC/C1=C\c1ccc(O)c([N+](=O)[O-])c1
11.5 µM (inactive)

Look up GI50 for this molecule: COc1ccc(CCCN2c3ccccc3Sc3ccccc32)cc1
> 100 µM (inactive)

Look up GI50 for this molecule: CCN(CC)C(=S)SNc1ccc(S(N)(=O)=O)cc1
36.8 µM (inactive)

Look up GI50 for this molecule: Cc1ccc(S(=O)(=O)n2ccn3c(=O)cc(C)nc23)cc1
> 10 µM (inactive)

Look up GI50 for this molecule: O=C(OC1C2OC(=O)c3cc(O)c(O)c(O)c3Oc3cc4c(c(O)c3O)-c3c(cc(O)c(O)c3O)C(=O)OCC3OC(O)C(OC(=O)c5cc(O)c(O)c(O)c5Oc5cc6c(c(O)c5O)-c5c(cc(O)c(O)c5O)C(=O)OC1C(COC6=O)OC2O)C(OC(=O)c1cc(O)c(O)c(O)c1)C3OC4=O)c1cc(O)c(O)c(O)c1 (stereo not drawn)
38.3 µM (inactive)

Look up GI50 for this molecule: CC(=O)OCC1OC(N2C(=O)/C(=N\NC(N)=S)c3ccc([N+](=O)[O-])cc32)C(OC(C)=O)C1OC(C)=O (stereo not drawn)
38.4 µM (inactive)

Look up GI50 for this molecule: CO/C(N)=C(C#N)/N=C/c1ccco1
> 100 µM (inactive)

Look up GI50 for this molecule: COC(=O)C1Cc2cc3c(cc2C1=O)CCCC3 (stereo not drawn)
54.1 µM (inactive)

Look up GI50 for this molecule: CC(=O)Nc1oc(C)nc1C#N
> 100 µM (inactive)

Look up GI50 for this molecule: O=S(=O)(O)c1ccc2c(/N=N/c3ccc(Cl)cc3)c(O)ccc2c1
> 100 µM (inactive)

The reported measurements were obtained from ChEMBL document CHEMBL1201862.
